Just for reference, patent US20230066268A1 is where these values come from.

IC50 reference
Molecular target: Human cytomegalovirus DNA polymerase (Human cytomegalovirus, UniProt P08546)
Construct: made in house; host or cells: SF21 insect cells (baculovirus vector)
Sequence (P08546 whole entry): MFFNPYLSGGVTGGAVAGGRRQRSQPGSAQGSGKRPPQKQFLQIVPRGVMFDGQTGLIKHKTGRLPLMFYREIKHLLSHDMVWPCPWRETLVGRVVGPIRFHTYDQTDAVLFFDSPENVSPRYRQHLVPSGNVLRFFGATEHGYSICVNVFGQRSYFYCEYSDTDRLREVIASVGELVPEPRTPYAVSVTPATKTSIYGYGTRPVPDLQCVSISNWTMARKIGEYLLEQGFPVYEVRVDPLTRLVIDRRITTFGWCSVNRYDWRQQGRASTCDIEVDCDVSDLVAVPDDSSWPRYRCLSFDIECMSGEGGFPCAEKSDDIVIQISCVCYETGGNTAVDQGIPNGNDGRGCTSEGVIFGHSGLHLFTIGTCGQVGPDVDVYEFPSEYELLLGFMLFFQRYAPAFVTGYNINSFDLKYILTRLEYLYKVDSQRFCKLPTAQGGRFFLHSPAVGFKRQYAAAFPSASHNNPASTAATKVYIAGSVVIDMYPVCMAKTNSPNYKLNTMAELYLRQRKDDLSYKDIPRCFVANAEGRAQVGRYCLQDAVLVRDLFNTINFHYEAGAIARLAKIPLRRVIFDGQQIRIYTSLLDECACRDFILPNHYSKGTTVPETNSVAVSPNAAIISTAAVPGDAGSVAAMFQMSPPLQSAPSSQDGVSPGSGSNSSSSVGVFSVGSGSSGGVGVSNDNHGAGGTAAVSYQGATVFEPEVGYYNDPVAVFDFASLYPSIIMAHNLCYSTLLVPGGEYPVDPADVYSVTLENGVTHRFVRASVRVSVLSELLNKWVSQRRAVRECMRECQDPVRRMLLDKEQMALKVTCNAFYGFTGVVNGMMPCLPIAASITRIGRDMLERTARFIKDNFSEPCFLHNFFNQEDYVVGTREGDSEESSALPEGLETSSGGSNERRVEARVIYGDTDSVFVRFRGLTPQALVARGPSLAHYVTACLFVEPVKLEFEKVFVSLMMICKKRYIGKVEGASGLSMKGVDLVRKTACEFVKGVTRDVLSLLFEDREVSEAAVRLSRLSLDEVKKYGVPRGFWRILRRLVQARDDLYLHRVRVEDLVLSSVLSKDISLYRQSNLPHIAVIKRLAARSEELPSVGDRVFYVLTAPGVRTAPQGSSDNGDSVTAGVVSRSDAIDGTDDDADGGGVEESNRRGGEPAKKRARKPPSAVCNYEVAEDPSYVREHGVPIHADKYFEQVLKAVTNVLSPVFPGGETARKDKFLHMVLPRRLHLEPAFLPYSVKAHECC
Experiment: CMV polymerase assay (AlphaLISA)
Type: biochemical
Conditions: polymerase assay of Example 27; HCMV polymerase 0.2 nM; read-out: CMV^a (IC50)
Experimental: CMV and VZV Polymerase Assays Human cytomegalovirus and varicella zoster virus DNA polymerases were expressed via baculovirus vector in SF21 cells and purified. Heterodimeric nucleic acid substrate used in the herpesvirus polymerase reactions were generated by annealing a 59-mer template to a 17-mer digoxigenin-labeled primer. […] Incorporation of biotinylated UTP was detected with 2.5-5 μg/mL anti-DIG AlphaLISA acceptor beads and 5-10 μg/mL streptavidin AlphaLISA donor beads (PerkinElmer). […]
Give the quantity in nM, number only.

compound-smiles: Cc1c(CN2CCOCC2)cc2c(C(=O)NCc3ccc(Cl)cc3)nn(C)c2c1C
endpoint-unit: nM
test-result: 580

Which IC50 reading was recorded for the compound `Cn1nc(C(=O)NCc2ccc(Cl)cc2)c2c(O)c(CN3CCOCC3)ccc21` ? 390

Which IC50 reading was recorded for the compound `O=C(NCc1ccc(Cl)cc1)c1n[nH]c2c(Cl)c(N3CCn4nncc4C3)ccc12` ? 22

Which IC50 reading was recorded for the compound `Cn1nc(C(=O)NCc2ccc(Br)cc2)c2cc(CN3CCOCC3)ccc21` ? 920

Which IC50 reading was recorded for the compound `Cn1nc(C(=O)NCc2ccc(Cl)cc2)c2cc(C[C@H]3CCC(=O)N3)ccc21` ? 67

* * *

Molecular target: varicella zoster virus DNA polymerase (Varicella-zoster virus, UniProt P09252)
Construct: made in house; host or cells: SF21 insect cells (baculovirus vector)
Sequence (P09252 whole entry): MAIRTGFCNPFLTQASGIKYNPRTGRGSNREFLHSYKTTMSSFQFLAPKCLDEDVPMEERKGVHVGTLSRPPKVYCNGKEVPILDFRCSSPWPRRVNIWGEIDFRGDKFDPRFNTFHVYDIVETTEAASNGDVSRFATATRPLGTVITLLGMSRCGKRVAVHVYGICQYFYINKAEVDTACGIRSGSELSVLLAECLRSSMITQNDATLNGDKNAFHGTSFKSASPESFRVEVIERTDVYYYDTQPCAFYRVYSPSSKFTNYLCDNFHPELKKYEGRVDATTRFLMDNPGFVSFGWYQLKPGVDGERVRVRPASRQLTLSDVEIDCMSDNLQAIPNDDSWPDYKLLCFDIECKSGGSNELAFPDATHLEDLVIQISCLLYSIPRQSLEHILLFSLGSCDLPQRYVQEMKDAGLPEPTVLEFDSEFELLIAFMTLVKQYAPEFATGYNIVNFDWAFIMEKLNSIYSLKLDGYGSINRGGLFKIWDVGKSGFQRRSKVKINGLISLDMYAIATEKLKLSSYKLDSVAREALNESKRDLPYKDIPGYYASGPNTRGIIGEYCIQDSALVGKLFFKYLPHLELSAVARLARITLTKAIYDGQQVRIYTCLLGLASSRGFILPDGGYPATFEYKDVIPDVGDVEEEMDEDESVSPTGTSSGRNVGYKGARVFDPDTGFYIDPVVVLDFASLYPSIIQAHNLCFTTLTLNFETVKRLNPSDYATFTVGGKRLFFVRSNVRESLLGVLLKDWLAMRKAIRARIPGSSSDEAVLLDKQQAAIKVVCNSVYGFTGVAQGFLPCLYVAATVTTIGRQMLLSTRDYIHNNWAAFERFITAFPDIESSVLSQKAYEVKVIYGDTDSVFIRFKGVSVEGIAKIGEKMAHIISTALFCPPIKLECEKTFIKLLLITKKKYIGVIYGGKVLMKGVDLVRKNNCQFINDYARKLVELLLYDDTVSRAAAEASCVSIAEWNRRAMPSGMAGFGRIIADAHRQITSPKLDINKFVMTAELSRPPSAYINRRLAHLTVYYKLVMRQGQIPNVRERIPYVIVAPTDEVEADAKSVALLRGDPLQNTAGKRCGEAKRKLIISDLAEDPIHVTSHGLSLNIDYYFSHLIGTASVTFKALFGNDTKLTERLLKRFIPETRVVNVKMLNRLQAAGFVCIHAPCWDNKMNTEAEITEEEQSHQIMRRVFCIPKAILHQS
Assay: VZV polymerase assay (AlphaLISA)
Type: biochemical
Details: polymerase assay of Example 27; VZV polymerase 0.4 nM; read-out: VZV^a (IC50)
observable: pIC50
As a rule, pIC50 stands for the negative log10 of the concentration, concentration in M.

Example entries and their recorded answers appear below.
compound-smiles: Cc1c(NCc2cnnn2C)ccc2c(C(=O)NCc3ccc(Cl)cc3)n[nH]c12
pIC50: 8.30
--
compound-smiles: Cn1nc(C(=O)NCc2ccc(Cl)cc2)c2cc(C[C@H]3CCC(=O)N3)ccc21
pIC50: 7.62

Which pIC50 reading was recorded for the molecule `Cn1nncc1COc1ccc2c(C(=O)NCc3ccc(Cl)cc3)nn(C)c2c1Cl` ? 7.92

Which pIC50 reading was recorded for the molecule `Cn1nc(C(=O)NCc2ccc(Cl)cc2)c2cc(C[C@H]3COC(=O)N3)ccc21` ? 7.46

Which pIC50 reading was recorded for the molecule `N#Cc1c(N2CCn3nncc3C2)ccc2c(C(=O)NCc3ccc(Cl)cc3)n[nH]c12` ? 8.43

Which pIC50 reading was recorded for the molecule `Cc1c(CN2CCCS(=O)(=O)CC2)ccc2c1c(C(=O)NCc1ccc(Cl)cc1)nn2C` ? 6.80

Which pIC50 reading was recorded for the molecule `Cn1nc(C(=O)NCc2ccc(Cl)cc2)c2ccc(N3CCn4nncc4C3)nc21` ? 5.52

Which pIC50 reading was recorded for the molecule `Cn1nc(C(=O)NCc2ccc(Cl)cc2)c2c(O)c(CN3CCOCC3)ccc21` ? 7.18

* * *

Target: varicella zoster virus DNA polymerase (Varicella-zoster virus)
Construct: made in house; host or cells: SF21 insect cells (baculovirus vector)
Assay: VZV polymerase assay (AlphaLISA)
Type: biochemical
Conditions: VZV^a (IC50), polymerase assay of Example 27; VZV polymerase 0.4 nM
IC50 reference
Give the quantity in µM, number only.

compound: Cc1c(N2CCn3nncc3C2)ccc2c(C(=O)NCc3ccc(Cl)cc3)nn(C3CCNC3)c12 (stereo not shown) [Compound 4]
IC50, µM: 0.016
//
compound: Cc1c(N2CCn3nncc3C2)ccc2c(C(=O)NCc3ccc(Cl)cc3)nn(CCOCCO)c12 [Compound 5]
IC50, µM: 0.012
//
compound: Cc1c(N2CCn3nncc3C2)ccc2c(C(=O)NCc3ccc(C#N)cc3)nn(CCC#N)c12 [Compound 1]
IC50, µM: 0.013

As a next step, examine the compound that follows.
Missing value: IC50, varicella zoster virus DNA polymerase (Varicella-zoster virus), entry Cc1cc(CN2CCCS(=O)(=O)CC2)cc2c(C(=O)NCc3ccc(C#N)cc3)nn(CCC#N)c12 [Compound 8] . Fill in? 0.062
